- measurement_description: Qualitative (kinetic/visual) solubility in solvents/media
- Assay type: physicochemical
- condition_notes: n-hexane, organic solvent or mixture, thermodynamic from solid, n-hexane; read-out: Solubility
readout_type: Solubility

Recorded Solubility of CCC(CC)n1cnc2c(-c3cnc(N)cn3)nc(N3CC4CCC(C3)O4)nc21 [FT-1518-Esylate] , please.
< 1000 µg/mL

====

- measurement_description: Qualitative (kinetic/visual) solubility in solvents/media
- Assay type: physicochemical
- condition_notes: ethyl acetate, organic solvent or mixture, thermodynamic from solid, Ethyl acetate; read-out: Solubility
readout_type: Solubility

// query Solubility value for entry CCC(CC)n1cnc2c(-c3cnc(N)cn3)nc(N3CC4CCC(C3)O4)nc21 [FT-1518-Esylate]
< 1000 µg/mL

====

- measurement_description: Intravenous and per oral pharmacokinetics in male Balb/c mice
- Type: in vivo
- condition_notes: male, Balb/c, mouse, plasma, po, 50 mg/kg, PO dose (50 mg/kg), single dose, male Balb/c mice
readout_type: half-life

Which measured half-life value corresponds to CCC(CC)n1cnc2c(-c3cnc(N)cn3)nc(N3CC4CCC(C3)O4)nc21 [FT-1518-Esylate] ?
3.4 h

====

- measurement_description: Intravenous and per oral pharmacokinetics in male Balb/c mice
- Assay type: in vivo
- condition_notes: male, Balb/c, mouse, plasma, po, 50 mg/kg, PO dose (50 mg/kg), single dose, male Balb/c mice
readout_type: AUC(0-inf) (ng·h/mL)
Give the value, in units of ng·h/mL, as a plain number.

Recorded AUC(0-inf) for CCC(CC)n1cnc2c(-c3cnc(N)cn3)nc(N3CC4CCC(C3)O4)nc21 [FT-1518-Esylate] , please?
23700

====

- measurement_description: Intravenous and per oral pharmacokinetics in male Sprague Dawley rats
- Type: in vivo, Sprague Dawley (SD) rats
- condition_notes: male, Sprague Dawley, rat, plasma, po, 10 mg/kg, PO dose (10 mg/kg), single dose, male SD rats; read-out: Cmax
readout_type: Cmax (ng/mL)
// note: answer is a bare numeric in ng/mL

# get_value(readout='Cmax', item= CCC(CC)n1cnc2c(-c3cnc(N)cn3)nc(N3CC4CCC(C3)O4)nc21 [FT-1518-Esylate] )
1770

====

- measurement_description: Qualitative (kinetic/visual) solubility in solvents/media
- Assay type: physicochemical
- condition_notes: acetone, organic solvent or mixture, thermodynamic from solid, Acetone; read-out: Solubility
readout_type: Solubility

Which value of Solubility has been reported for CCC(CC)n1cnc2c(-c3cnc(N)cn3)nc(N3CC4CCC(C3)O4)nc21 [FT-1518-Esylate] in the records?
< 1000 µg/mL

====

- measurement_description: Plasma protein binding, mouse
- Format: in vitro ADME
- condition_notes: mouse, plasma, 10 μM (n = 4); read-out: % Bound, Mouse plasma (converted)
readout_type: fraction unbound at 10 μM
API doc: respond with a numeric literal and nothing else, no unit.

Consider the compound CCC(CC)n1cnc2c(-c3cnc(N)cn3)nc(N3CC4CCC(C3)O4)nc21 [FT-1518-Esylate] and give its measured fraction unbound at 10 μM.
0.0854

====

- measurement_description: Intravenous and per oral pharmacokinetics in male Sprague Dawley rats
- Assay type: in vivo, Sprague Dawley (SD) rats
- condition_notes: male, Sprague Dawley, rat, plasma, po, 10 mg/kg, PO dose (10 mg/kg), single dose, male SD rats; read-out: AUC (AU C0^.oo)
readout_type: AUC
Please state the number and follow it with the unit.

Suppose we examine the compound CCC(CC)n1cnc2c(-c3cnc(N)cn3)nc(N3CC4CCC(C3)O4)nc21 [FT-1518-Esylate] ; what AUC value has been reported?
9680 ng·h/mL

====

- measurement_description: Microsomal stability, RLM
- Type: in vitro ADME
- condition_notes: 3 μM (n = 3), rat liver microsomes; read-out: Invitro T1/2, RLM
readout_type: half-life at 3 μM

Which half-life at 3 μM is reported for this molecule? CCC(CC)n1cnc2c(-c3cnc(N)cn3)nc(N3CC4CCC(C3)O4)nc21 [FT-1518-Esylate]
> 60 min

====

- measurement_description: Qualitative (kinetic/visual) solubility in solvents/media
- Format: physicochemical
- condition_notes: acetonitrile, organic solvent or mixture, thermodynamic from solid, Acetonitrile; read-out: Solubility
readout_type: Solubility

Name the reported Solubility value associated with the compound CCC(CC)n1cnc2c(-c3cnc(N)cn3)nc(N3CC4CCC(C3)O4)nc21 [FT-1518-Esylate]
> 100 mg/mL

====

- measurement_description: Intravenous and per oral pharmacokinetics in male Balb/c mice
- Assay type: in vivo
- condition_notes: mouse, plasma; PO dose (50 mg/kg), single dose, male Balb/c mice; read-out: Tmax
readout_type: Tmax (min)
Report the figure in min without appending any unit label.

Using the record for CCC(CC)n1cnc2c(-c3cnc(N)cn3)nc(N3CC4CCC(C3)O4)nc21 [FT-1518-Esylate] , report its Tmax.
18
